These entries and their values trace back to patent US6673798B2.

- STUDY_TARGET: PDGF β-receptor (Homo sapiens, UniProt P09619)
- Sequence (P09619 33-1106): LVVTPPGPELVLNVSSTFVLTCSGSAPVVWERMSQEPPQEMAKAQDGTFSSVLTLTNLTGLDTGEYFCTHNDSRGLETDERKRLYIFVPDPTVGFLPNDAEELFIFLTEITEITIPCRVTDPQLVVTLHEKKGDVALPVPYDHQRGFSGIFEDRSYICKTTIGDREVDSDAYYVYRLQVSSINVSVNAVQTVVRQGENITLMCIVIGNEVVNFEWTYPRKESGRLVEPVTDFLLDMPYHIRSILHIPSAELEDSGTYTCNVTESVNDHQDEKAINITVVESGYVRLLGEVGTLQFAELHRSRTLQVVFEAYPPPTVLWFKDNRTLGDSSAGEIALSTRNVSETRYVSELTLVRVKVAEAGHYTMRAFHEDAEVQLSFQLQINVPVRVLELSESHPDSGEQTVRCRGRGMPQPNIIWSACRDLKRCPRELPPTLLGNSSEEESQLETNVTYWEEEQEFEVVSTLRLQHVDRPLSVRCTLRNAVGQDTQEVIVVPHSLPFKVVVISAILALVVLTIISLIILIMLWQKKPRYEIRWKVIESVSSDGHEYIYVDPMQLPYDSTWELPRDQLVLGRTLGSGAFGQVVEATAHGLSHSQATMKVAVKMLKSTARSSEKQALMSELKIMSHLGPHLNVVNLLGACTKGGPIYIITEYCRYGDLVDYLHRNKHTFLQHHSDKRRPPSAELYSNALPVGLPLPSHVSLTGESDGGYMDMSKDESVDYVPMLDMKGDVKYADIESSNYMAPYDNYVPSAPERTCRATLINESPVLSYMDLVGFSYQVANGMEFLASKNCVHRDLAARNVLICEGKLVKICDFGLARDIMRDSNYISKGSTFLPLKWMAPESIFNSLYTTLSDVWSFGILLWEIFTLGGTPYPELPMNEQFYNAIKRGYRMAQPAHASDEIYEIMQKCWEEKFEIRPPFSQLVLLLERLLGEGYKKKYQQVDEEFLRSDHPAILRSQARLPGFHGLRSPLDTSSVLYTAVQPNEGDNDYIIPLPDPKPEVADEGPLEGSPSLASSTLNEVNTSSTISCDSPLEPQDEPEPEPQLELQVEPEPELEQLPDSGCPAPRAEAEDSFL
- EXPERIMENT: PDGF-induced PDGFR autophosphorylation in intact PAEC cells
- STATED_CONDITIONS: intact PAEC cells expressing PDGFR, PDGF-BB stimulated; read-out: IC50 (50% inhibition of phosphorylation) PDGFR
READOUT: IC50 (µM)

Some solved entries appear below for comparison.
Cc1nc2cc3nc(-c4ccccc4)cnc3cc2n1C : 0.5
Cc1nc2cc3ncc(-c4ccccc4)nc3cc2n1C : 10

I: Cc1nc2cc3nc(-c4cccs4)cnc3cc2n1C
II: Cc1nc2cc3ncc(-c4cccs4)nc3cc2n1C
Kindly identify the item with the lower IC50 figure among these two: I and II State the label of the item chosen.
I
